tested on: RSV B Washington strain; experiment: Assessment of RSV induced CPE in HEp2 cells (RSV B Washington strain); type: cell-based; settings: human respiratory syncytial virus, HEp-2, 144 h; HEp2 cells, 1 MOI, 6 days; read-out: RSV B CPE IC50
One threshold, 4 nM, splits the recorded IC50 values: lower ones are Yes, equal or higher ones are No.

Consider the following illustrative entries.
COMPOUND	CATEGORY LABEL
Cc1cnc(N2CC3(CCOCC3)C2)c(C(=O)Nc2ccc(C(=O)N3CCc4cc(C(=O)Nc5c(F)cccc5I)sc4-c4ccccc43)cc2)c1 [Example 6]	No
O=C(Nc1c(F)cccc1F)c1cc2c(s1)-c1ccccc1N(C(=O)c1ccc(NC(=O)c3cc(C4CC4)cnc3N3CC4(CCOCC4)C3)cc1)CC2 [Example 72]	Yes
O=C(Nc1c(F)cccc1F)c1cc2c(s1)-c1ccccc1N(C(=O)c1ccc(NC(=O)c3cc4c(nc3N3CC5(CCOCC5)C3)CCC4)cc1F)CC2 [Example 79]	Yes
O=C(Nc1c(F)cccc1F)c1cc2c(s1)-c1ccccc1N(C(=O)c1ccc(NC(=O)c3cc4sccc4nc3N3CC4(CCOCC4)C3)cc1)CC2 [Example 13]	Yes
Cc1cccc(F)c1NC(=O)c1cc2c(s1)-c1ccccc1N(C(=O)c1ccc(NC(=O)c3cc(F)cnc3N3CC4(CCOCC4)C3)cc1)CC2 [Example 68]	No

Next:
Just wondering, is IC50 of COc1cnc(N2CC3(CCOCC3)C2)c(C(=O)Nc2ccc(C(=O)N3CCc4cc(C(=O)Nc5c(C)cccc5F)sc4-c4ccccc43)cc2)c1 [Example 71] below 4 nM?
No

The origin of these recorded values is patent US10189863B2.
